assay-overview: activity coefficient (dimensionless); of the first substance listed, at infinite dilution; xn = mol fraction of the nth substance listed
test-settings: 318.15 K; 101.33 kPa; Liquid; Chromatography; x1 = 0
endpoint-name: activity coefficient
Keep it simple and answer with nothing but the number.

The following molecules have reported results that may help.
Exercise: Name the reported activity coefficient value associated with the molecule CCOCC [diethyl ether] + CCCCCCCCCCCCn1cc[n+](C)c1.O=S(=O)([N-]S(=O)(=O)C(F)(F)F)C(F)(F)F
Key: 0.983

Exercise: If you can, please state the reported activity coefficient value of c1ccccc1 [benzene] + CCCCCCCCCCCCn1cc[n+](C)c1.O=S(=O)([N-]S(=O)(=O)C(F)(F)F)C(F)(F)F .
Key: 0.568

Exercise: Could you tell me which activity coefficient is on file for C=CCCCC [hex-1-ene] + CCCCCCCCCCCCn1cc[n+](C)c1.O=S(=O)([N-]S(=O)(=O)C(F)(F)F)C(F)(F)F ?
Key: 2.15

Exercise: Query (molecule): C1=CCCCC1 [cyclohexene] + CCCCCCCCCCCCn1cc[n+](C)c1.O=S(=O)([N-]S(=O)(=O)C(F)(F)F)C(F)(F)F ; field requested: activity coefficient
Key: 1.56

Exercise: Record request: activity coefficient value, item CCC[N+](=O)[O-] [1-nitropropane] + CCCCCCCCCCCCn1cc[n+](C)c1.O=S(=O)([N-]S(=O)(=O)C(F)(F)F)C(F)(F)F
Key: 0.567

Continuing:
Exercise: Sample CC(C)OC(C)C [diisopropyl ether] + CCCCCCCCCCCCn1cc[n+](C)c1.O=S(=O)([N-]S(=O)(=O)C(F)(F)F)C(F)(F)F — what was its activity coefficient?
Key: 1.65

Exercise: Quick check: activity coefficient of CCCCCCC [heptane] + CCCCCCCCCCCCn1cc[n+](C)c1.O=S(=O)([N-]S(=O)(=O)C(F)(F)F)C(F)(F)F ?
Key: 3.55

Exercise: Given C#CCCCCCC [1-octyne] + CCCCCCCCCCCCn1cc[n+](C)c1.O=S(=O)([N-]S(=O)(=O)C(F)(F)F)C(F)(F)F , state its recorded activity coefficient.
Key: 1.74

Exercise: What value of measured activity coefficient is listed for CCCc1ccccc1 [propylbenzene] + CCCCCCCCCCCCn1cc[n+](C)c1.O=S(=O)([N-]S(=O)(=O)C(F)(F)F)C(F)(F)F ?
Key: 1.1

Exercise: Data request, read-out activity coefficient, for C1COCCO1 [1,4-dioxane] + CCCCCCCCCCCCn1cc[n+](C)c1.O=S(=O)([N-]S(=O)(=O)C(F)(F)F)C(F)(F)F
Key: 0.474

Exercise: // activity coefficient lookup, key: Cc1cccc(C)c1 [1,3-dimethylbenzene] + CCCCCCCCCCCCn1cc[n+](C)c1.O=S(=O)([N-]S(=O)(=O)C(F)(F)F)C(F)(F)F
Key: 0.874

Exercise: So what's the measured activity coefficient for this one? CCOC(C)=O [ethyl acetate] + CCCCCCCCCCCCn1cc[n+](C)c1.O=S(=O)([N-]S(=O)(=O)C(F)(F)F)C(F)(F)F
Key: 0.541

Exercise: Any idea what its activity coefficient is? The molecule is CCCCCCCC [octane] + CCCCCCCCCCCCn1cc[n+](C)c1.O=S(=O)([N-]S(=O)(=O)C(F)(F)F)C(F)(F)F
Key: 4.17

====

# maps each entry to its activity coefficient
assay-overview: activity coefficient (dimensionless); of the first substance listed, at infinite dilution; xn = mol fraction of the nth substance listed
test-settings: 328.15 K; 101.33 kPa; Liquid; Chromatography; x1 = 0

Here are 3 molecules together with their reported answers.
Exercise: What activity coefficient value was documented for this molecule, Cc1ccccc1 [toluene] + CCCCCCCCCCCCn1cc[n+](C)c1.O=S(=O)([N-]S(=O)(=O)C(F)(F)F)C(F)(F)F ?
Key: 0.732

Exercise: Return reported activity coefficient; argument: CC1CCCCC1 [methylcyclohexane] + CCCCCCCCCCCCn1cc[n+](C)c1.O=S(=O)([N-]S(=O)(=O)C(F)(F)F)C(F)(F)F
Key: 2.46

Exercise: // activity coefficient lookup, key: CCCCCCC [heptane] + CCCCCCCCCCCCn1cc[n+](C)c1.O=S(=O)([N-]S(=O)(=O)C(F)(F)F)C(F)(F)F
Key: 3.6

Continuing:
Exercise: Using the record for Cc1cccc(C)c1 [1,3-dimethylbenzene] + CCCCCCCCCCCCn1cc[n+](C)c1.O=S(=O)([N-]S(=O)(=O)C(F)(F)F)C(F)(F)F , report its activity coefficient.
Key: 0.918

Exercise: Item under review: C=Cc1ccccc1 [styrene] + CCCCCCCCCCCCn1cc[n+](C)c1.O=S(=O)([N-]S(=O)(=O)C(F)(F)F)C(F)(F)F . Reported activity coefficient?
Key: 0.666

Exercise: Please look up its activity coefficient: C=CCCCCCCCC [1-decene] + CCCCCCCCCCCCn1cc[n+](C)c1.O=S(=O)([N-]S(=O)(=O)C(F)(F)F)C(F)(F)F
Key: 4.27

Exercise: Can you share its activity coefficient? I mean this molecule: CC(C)=O [acetone] + CCCCCCCCCCCCn1cc[n+](C)c1.O=S(=O)([N-]S(=O)(=O)C(F)(F)F)C(F)(F)F
Key: 0.369

====

// reported activity coefficient for each item listed
assay-overview: activity coefficient (dimensionless); of the first substance listed, at infinite dilution; xn = mol fraction of the nth substance listed
test-settings: 358.15 K; 101.33 kPa; Liquid; Chromatography; x1 = 0
Quick one: just the number, no unit, thanks!

Consider the following illustrative entries.
Exercise: Find the recorded activity coefficient belonging to CCc1ccccc1 [ethylbenzene] + CCCCCCCCCCCCn1cc[n+](C)c1.O=S(=O)([N-]S(=O)(=O)C(F)(F)F)C(F)(F)F and report it.
Key: 1.07

Exercise: Record request: activity coefficient value, item CC(C)O [propan-2-ol] + CCCCCCCCCCCCn1cc[n+](C)c1.O=S(=O)([N-]S(=O)(=O)C(F)(F)F)C(F)(F)F
Key: 1.07

Exercise: Which activity coefficient reading was recorded for the molecule CCCCO [butan-1-ol] + CCCCCCCCCCCCn1cc[n+](C)c1.O=S(=O)([N-]S(=O)(=O)C(F)(F)F)C(F)(F)F ?
Key: 1.24

Now for another entry.
Exercise: Reported activity coefficient for CC#N [acetonitrile] + CCCCCCCCCCCCn1cc[n+](C)c1.O=S(=O)([N-]S(=O)(=O)C(F)(F)F)C(F)(F)F : what is it?
Key: 0.539

====

Collected activity coefficient values appear next to each entry.
assay-overview: activity coefficient (dimensionless); of the first substance listed, at infinite dilution; xn = mol fraction of the nth substance listed
test-settings: 338.15 K; 101.33 kPa; Liquid; Chromatography; x1 = 0
Just the number, please.

Examples from the recorded data:
Exercise: If you can, please state the reported activity coefficient value of C1CCCCCCC1 [cyclooctane] + CCCCCCCCCCCCn1cc[n+](C)c1.O=S(=O)([N-]S(=O)(=O)C(F)(F)F)C(F)(F)F .
Key: 2.83

Exercise: // lookup activity coefficient for C1COCCO1 [1,4-dioxane] + CCCCCCCCCCCCn1cc[n+](C)c1.O=S(=O)([N-]S(=O)(=O)C(F)(F)F)C(F)(F)F
Key: 0.524

Exercise: Given O [water] + CCCCCCCCCCCCn1cc[n+](C)c1.O=S(=O)([N-]S(=O)(=O)C(F)(F)F)C(F)(F)F , state its recorded activity coefficient.
Key: 3.64

Exercise: Param item = C1=CCCCC1 [cyclohexene] + CCCCCCCCCCCCn1cc[n+](C)c1.O=S(=O)([N-]S(=O)(=O)C(F)(F)F)C(F)(F)F ; retrieve measured activity coefficient.
Key: 1.62

Exercise: Could you tell me which activity coefficient is on file for CCCO [propan-1-ol] + CCCCCCCCCCCCn1cc[n+](C)c1.O=S(=O)([N-]S(=O)(=O)C(F)(F)F)C(F)(F)F ?
Key: 1.29

Exercise: I have this molecule here, C=Cc1ccccc1 [styrene] + CCCCCCCCCCCCn1cc[n+](C)c1.O=S(=O)([N-]S(=O)(=O)C(F)(F)F)C(F)(F)F , and I need its recorded activity coefficient.
Key: 0.702

Exercise: What measured activity coefficient goes with C=CCCCCCC [oct-1-ene] + CCCCCCCCCCCCn1cc[n+](C)c1.O=S(=O)([N-]S(=O)(=O)C(F)(F)F)C(F)(F)F ?
Key: 3.17

Exercise: Report activity coefficient for CCc1ccccc1 [ethylbenzene] + CCCCCCCCCCCCn1cc[n+](C)c1.O=S(=O)([N-]S(=O)(=O)C(F)(F)F)C(F)(F)F please.
Key: 0.992

Exercise: Endpoint output: activity coefficient of C1CCCC1 [cyclopentane] + CCCCCCCCCCCCn1cc[n+](C)c1.O=S(=O)([N-]S(=O)(=O)C(F)(F)F)C(F)(F)F . Value?
Key: 1.8

Exercise: Looking for the measured activity coefficient of c1ccncc1 [pyridine] + CCCCCCCCCCCCn1cc[n+](C)c1.O=S(=O)([N-]S(=O)(=O)C(F)(F)F)C(F)(F)F , can you help?
Key: 0.42

Next:
Exercise: Need activity coefficient of CCCCC [pentane] + CCCCCCCCCCCCn1cc[n+](C)c1.O=S(=O)([N-]S(=O)(=O)C(F)(F)F)C(F)(F)F , thanks.
Key: 2.66

These data points were gathered from the NIST ThermoML archive (doi:10.1016/j.jct.2016.08.008).
